Attribution: patent US8808737B2

- protocol_summary: Example 5: plasma pharmacokinetics of oxymorphone and metabolites after EN3202 in renal impairment vs healthy controls
- stated_conditions: human, plasma, oral, 20 mg, Cmax in plasma (mean, untransformed), single 20 mg dose of EN3202; Healthy Controls
value_type: Cmax (ng/mL)
Quick note: give the figure in ng/mL, leave out the unit.

Req: Value lookup for Cmax; key = CN1CC[C@]23c4c5ccc(O)c4O[C@H]2C(=O)CC[C@@]3(O)[C@H]1C5 [Oxymorphone, 14-hydroxydihydromorphinone, reference compound]
Resp: 1.16

---

- protocol_summary: Example 5: plasma pharmacokinetics of oxymorphone and metabolites after EN3202 in renal impairment vs healthy controls
- stated_conditions: human, plasma, oral, 20 mg, Cmax in plasma (mean, untransformed), single 20 mg dose of EN3202; Severe Impairment
value_type: Cmax (ng/mL)
Kindly answer with a numeric value in ng/mL, unit omitted.

Req: Give the measured Cmax of CN1CC[C@]23c4c5ccc(O)c4O[C@H]2C(=O)CC[C@@]3(O)[C@H]1C5 [Oxymorphone, 14-hydroxydihydromorphinone, reference compound] .
Resp: 2.04

---

- protocol_summary: Example 5: plasma pharmacokinetics of oxymorphone and metabolites after EN3202 in renal impairment vs healthy controls
- stated_conditions: human, plasma, oral, 20 mg, AUCT in plasma (mean, untransformed), single 20 mg dose of EN3202; Healthy Controls
value_type: AUC(0-t)
Please make sure the unit comes right after the number.

Req: AUC(0-t) for CN1CC[C@]23c4c5ccc(O)c4O[C@H]2C(=O)CC[C@@]3(O)[C@H]1C5 [Oxymorphone, 14-hydroxydihydromorphinone, reference compound] ?
Resp: 15.8 ng·h/mL

---

- protocol_summary: Example 5: plasma pharmacokinetics of oxymorphone and metabolites after EN3202 in renal impairment vs healthy controls
- stated_conditions: human, plasma, oral, 20 mg, t½, terminal elimination half-life in plasma (mean), single 20 mg dose of EN3202; Mild Impairment
value_type: half-life (h)
Please give a number only; it is taken to be in h.

Req: Param item = CN1CC[C@]23c4c5ccc(O)c4O[C@H]2C(=O)CC[C@@]3(O)[C@H]1C5 [Oxymorphone, 14-hydroxydihydromorphinone, reference compound] ; retrieve measured half-life.
Resp: 12.4

---

- protocol_summary: Example 5: plasma pharmacokinetics of oxymorphone and metabolites after EN3202 in renal impairment vs healthy controls
- stated_conditions: human, plasma, oral, 20 mg, AUCT in plasma (mean, untransformed), single 20 mg dose of EN3202; Mild Impairment
value_type: AUC(0-t)
Answer format: number, then unit.

Req: Recorded AUC(0-t) for CN1CC[C@]23c4c5ccc(O)c4O[C@H]2C(=O)CC[C@@]3(O)[C@H]1C5 [Oxymorphone, 14-hydroxydihydromorphinone, reference compound] , please?
Resp: 19 ng·h/mL

---

- protocol_summary: Example 5: plasma pharmacokinetics of oxymorphone and metabolites after EN3202 in renal impairment vs healthy controls
- stated_conditions: human, plasma, oral, 20 mg, AUC in plasma (mean, untransformed), single 20 mg dose of EN3202; Moderate Impairment
value_type: AUC (ng·h/mL)
The reply should be a number in ng·h/mL, with the unit left off.

Req: Which AUC is reported for this molecule? CN1CC[C@]23c4c5ccc(O)c4O[C@H]2C(=O)CC[C@@]3(O)[C@H]1C5 [Oxymorphone, 14-hydroxydihydromorphinone, reference compound]
Resp: 27.9

---

- protocol_summary: Example 5: plasma pharmacokinetics of oxymorphone and metabolites after EN3202 in renal impairment vs healthy controls
- stated_conditions: human, plasma, oral, 20 mg, AUC in plasma (mean, untransformed), single 20 mg dose of EN3202; Severe Impairment
value_type: AUC (ng·h/mL)
Field: numeric (ng·h/mL). Do not append units.

Req: Report AUC for CN1CC[C@]23c4c5ccc(O)c4O[C@H]2C(=O)CC[C@@]3(O)[C@H]1C5 [Oxymorphone, 14-hydroxydihydromorphinone, reference compound] please.
Resp: 34.5

---

- protocol_summary: Example 5: urinary excretion of oxymorphone and metabolites after EN3202 in renal impairment
- stated_conditions: human, urine, oral, 20 mg, Mean urinary elimination half-life, EN3202 20 mg; moderate renal impairment
value_type: half-life (h)
Kindly answer with a numeric value in h, unit omitted.

Req: Dear colleague, I am looking for the recorded half-life of the following molecule: CN1CC[C@]23c4c5ccc(O)c4O[C@H]2C(=O)CC[C@@]3(O)[C@H]1C5 [Oxymorphone, 14-hydroxydihydromorphinone, reference compound]
Resp: 13.9

---

- protocol_summary: Example 5: plasma pharmacokinetics of oxymorphone and metabolites after EN3202 in renal impairment vs healthy controls
- stated_conditions: human, plasma, oral, 20 mg, AUC in plasma (mean, untransformed), single 20 mg dose of EN3202; Healthy Controls
value_type: AUC (ng·h/mL)
Lab book: enter the figure in ng·h/mL, no units written.

Req: Which AUC reading was recorded for the compound CN1CC[C@]23c4c5ccc(O)c4O[C@H]2C(=O)CC[C@@]3(O)[C@H]1C5 [Oxymorphone, 14-hydroxydihydromorphinone, reference compound] ?
Resp: 18.9

---

- protocol_summary: Example 5: urinary excretion of oxymorphone and metabolites after EN3202 in renal impairment
- stated_conditions: human, urine, oral, 20 mg, Mean urinary elimination half-life, EN3202 20 mg; mild renal impairment
value_type: half-life (h)
Enter your answer as a number in h; do not include the unit.

Req: Record request: half-life value, item CN1CC[C@]23c4c5ccc(O)c4O[C@H]2C(=O)CC[C@@]3(O)[C@H]1C5 [Oxymorphone, 14-hydroxydihydromorphinone, reference compound]
Resp: 12.1

---

- protocol_summary: Example 5: plasma pharmacokinetics of oxymorphone and metabolites after EN3202 in renal impairment vs healthy controls
- stated_conditions: human, plasma, oral, 20 mg, t½, terminal elimination half-life in plasma (mean), single 20 mg dose of EN3202; Severe Impairment
- Method: Attempts were made to match controls with the renal impaired patients with respect to age, gender, and weight. […] Naltrexone (50 mg) was administered on the evening prior to administration of the EN3202 dose. […] Plasma and urine pharmacokinetic variables were calculated from the concentration data using standard, non-compartmental methods as outlined in the following table. […]
value_type: half-life (h)
Could you give me the number in h? Just the number is fine.

Req: Endpoint output: half-life of CN1CC[C@]23c4c5ccc(O)c4O[C@H]2C(=O)CC[C@@]3(O)[C@H]1C5 [Oxymorphone, 14-hydroxydihydromorphinone, reference compound] . Value?
Resp: 13.3
